# refractive index listing for each entry below
# experiment.description: refractive index (Na D-line) (dimensionless)
# cond: 298.15 K; 101.33 kPa; Liquid

compound	refractive index
CCCCOC=O [butyl methanoate]	1.387
CCCCOC(C)=O [butyl ethanoate]	1.3918
CCCCOC(=O)CCC [butyl butanoate]	1.404
CCCCOC(=O)CC [butyl propanoate]	1.399

====

As shown below, each of these compounds has a reported mass density value.
# cond: 298.15 K; 101.33 kPa; Liquid
Numbers after ± are expanded uncertainties.

compound	mass density
CCCCOC(C)=O [butyl ethanoate]	876.4 ± 1.1 kg/m3
CCCCOC(=O)CC [butyl propanoate]	871.08 ± 0.96 kg/m3
CCCCOC=O [butyl methanoate]	888.17 ± 1.6 kg/m3
CCCCOC(=O)CCC [butyl butanoate]	864.84 ± 0.98 kg/m3
